B1: KCNA4 (parent)
chain: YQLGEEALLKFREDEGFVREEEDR

- Variants of: B1
- PROTOCOL DETAILS: protein stability index of a GFP-peptide fusion (GPS, HEK-293T) (PSI 1-6); higher = more stable;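 further: lentivirally expressed fusions sorted by FACS into six bins by GFP to DsRed ratio, PSI derived from sequencing read proportions per bin multiplied by bin number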
- CONDITION CONTEXT: c terminus: a fixed tail appended
ENDPOINT LABEL: protein stability index
Answer field: number only, no words.

Some variants with recorded protein stability index:
YQLGEEALLKFREDEGFVRAEEDR [E20A]; 3.63
YQLGEEAYLKFREDEGFVREEEDR [L8Y]; 5.21
YQLGEEALLKFRLDEGFVREEEDR [E13L]; 4.45
YILGEEALLKFREDEGFVREEEDR [Q2I]; 4.43
YQLGEEALLKRREDEGFVREEEDR [F11R]; 5.8

Switching to the query record.
Would you kindly share the measured protein stability index for YQLMEEALLKFREDEGFVREEEDR [G4M] ?
5.27
